From: patent US20220267421A1

As shown below, each of these binders has a reported Ratio of KD in solution/immobilised for human MSLN-His-Avi value.
# system: T1, human MSLN-His-Avi (human, UniProt Q13421 296-598, single biotin (BirA) in the biotinylated form)
# T1 construct: Monomeric, made in HEK293-6E; Used both immobilised and in solution; also called hMSLN-His-Avi; biotinylated hMSLN-His-Avi
# T1 sequence (Q13421 other isoform, or with tags, fused parts or gaps): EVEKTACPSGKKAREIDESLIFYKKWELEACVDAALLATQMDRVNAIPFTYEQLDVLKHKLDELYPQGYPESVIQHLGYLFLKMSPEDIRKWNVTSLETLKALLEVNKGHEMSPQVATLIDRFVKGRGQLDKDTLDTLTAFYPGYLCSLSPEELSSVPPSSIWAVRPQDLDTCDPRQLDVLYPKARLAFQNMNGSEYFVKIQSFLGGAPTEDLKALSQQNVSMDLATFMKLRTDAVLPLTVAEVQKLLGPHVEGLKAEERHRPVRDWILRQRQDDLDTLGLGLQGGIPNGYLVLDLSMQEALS
# procedure summary: ratio of the two SPR KD
// print number alone

The following binders have reported results that may help.
binder="FS22-053-008-AA/FS28-024-051 mAb^2 (bispecific antibody, human IgG1, kappa, L234A L235A, V domains shown, also called FS28-024-51) VH: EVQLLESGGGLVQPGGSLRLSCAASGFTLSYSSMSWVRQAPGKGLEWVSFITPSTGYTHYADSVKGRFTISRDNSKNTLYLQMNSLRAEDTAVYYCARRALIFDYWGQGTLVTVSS VL: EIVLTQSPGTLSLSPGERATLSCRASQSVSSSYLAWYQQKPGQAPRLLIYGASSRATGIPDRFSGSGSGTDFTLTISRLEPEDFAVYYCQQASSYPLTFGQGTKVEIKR" test_value=154
binder="FS22-053-008-AA/FS28-185 (bispecific antibody, human IgG1, kappa, L234A L235A, V domains shown) VH: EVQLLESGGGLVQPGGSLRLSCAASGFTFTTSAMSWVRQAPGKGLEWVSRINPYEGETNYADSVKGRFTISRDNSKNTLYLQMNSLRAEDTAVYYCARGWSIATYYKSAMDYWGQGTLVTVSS VL: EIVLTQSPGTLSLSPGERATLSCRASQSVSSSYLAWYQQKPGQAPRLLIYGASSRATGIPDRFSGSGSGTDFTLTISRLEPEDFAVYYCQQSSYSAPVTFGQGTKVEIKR" test_value=15

input: Give its Ratio of KD in solution/immobilised for human MSLN-His-Avi value. Item: FS22-053-008-AA/FS28-024 mAb^2 (bispecific antibody, human IgG1, kappa, L234A L235A, V domains shown, also called FS28-024 (in FS22-053-008-AA mAb^2 format); FS28-024 (in CD137 mAb2 format)) VH: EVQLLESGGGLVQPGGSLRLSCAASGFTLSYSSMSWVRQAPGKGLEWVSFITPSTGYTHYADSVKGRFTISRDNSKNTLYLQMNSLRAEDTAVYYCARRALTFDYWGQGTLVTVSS VL: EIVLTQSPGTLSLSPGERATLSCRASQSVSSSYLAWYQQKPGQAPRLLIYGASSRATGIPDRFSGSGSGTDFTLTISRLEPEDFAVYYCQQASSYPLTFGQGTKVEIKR
output: 119

input: Next binder: FS22-053-008-AA/FS28-024-060 mAb^2 (bispecific antibody, human IgG1, kappa, L234A L235A, V domains shown) VH: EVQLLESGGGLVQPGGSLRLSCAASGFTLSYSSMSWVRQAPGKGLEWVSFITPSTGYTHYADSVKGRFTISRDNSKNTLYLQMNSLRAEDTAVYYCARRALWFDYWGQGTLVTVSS VL: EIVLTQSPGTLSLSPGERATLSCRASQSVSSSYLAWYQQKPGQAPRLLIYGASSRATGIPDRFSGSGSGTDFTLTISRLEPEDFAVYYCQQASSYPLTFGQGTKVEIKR
output: 78.6
